Tested on: SNB-75 CNS
experiment.notes: NCI-60 one-dose screen, 48 h
assay.context: 10 µM unless noted
The panel holds about 83,000 compounds, 20% with a hit somewhere; the sample as a whole holds those more often. Activity calls are given as the source filed them. The calls were made as follows: active = growth percent below 10; inactive = the rest.
Lab note: assign the record to one of true (1) (active), false (0) (inactive)

Inquiry: Hey, what did the test say about COC(=O)[C@@]12CC=C(C)[C@]3(C[C@H](c4ccoc4)OC3=O)[C@H]1C=C[C@@H](O)[C@@]2(O)C(=O)OC ?
Reply text: false (0)

Inquiry: Hey, what did the test say about Nc1nc2ccccc2c2c(=O)c3cc(Cl)ccc3sc12 ?
Reply text: false (0)

Inquiry: Hey, what did the test say about O=c1oc2c(cc1-c1ccccc1)c[n+]([O-])c1ccccc21 ?
Reply text: false (0)

Inquiry: Hey, what did the test say about Oc1nc(NCc2ccccc2)sc1/C=C1\C=Nc2ncccc21 ?
Reply text: false (0)

Inquiry: Hey, what did the test say about COc1cc(Cc2cc(OC)c(O)c(OC)c2)cc(OC)c1O ?
Reply text: false (0)

Inquiry: Hey, what did the test say about O=c1oc2ccccc2cc1-c1nn(-c2ccccc2)cc1-c1nn[nH]n1 ?
Reply text: false (0)

Inquiry: Hey, what did the test say about Fc1ccc2[nH]cc(-c3nc(-c4c[nH]c5c(Cl)nccc45)cs3)c2c1 ?
Reply text: false (0)

Inquiry: Hey, what did the test say about COC(=O)c1ccc2c(c1)c1c(C)c3cnccc3c(C)c1n2C ?
Reply text: true (1)

Inquiry: Hey, what did the test say about COCCn1cc(-c2csc(-c3c[nH]c4ccc(F)cc34)n2)c2cccnc21 ?
Reply text: false (0)

Inquiry: Hey, what did the test say about COc1ccc(-c2cc(C(=O)N3N=C(c4ccc(N)cc4)CC3c3ccc(Cl)cc3)c3ccccc3n2)cc1 (stereo not given) ?
Reply text: true (1)

* * *

System: UO-31 renal
experiment.notes: NCI-60 one-dose screen, 48 h
assay.context: 10 µM unless noted
Compounds without any hit were thinned out: in the full panel of roughly 83,000, 20% have a hit. Calls of active or inactive are those of the source. Rule for the calls: active = growth percent below 10; inactive = the rest.
Lab note: assign the record to one of 1 for active, 0 for inactive

Inquiry: Hey, what did the test say about COc1cc(C[C@H]2COc3cc(O)cc(O)c3C2=O)ccc1O ?
Reply text: 0

Inquiry: Hey, what did the test say about COc1cc(/C=C/C(=O)c2cccc(-n3cc(-c4ccc(Cl)cc4)[nH]c3=O)c2)ccc1O ?
Reply text: 0

Inquiry: Hey, what did the test say about COc1cc(/C=C2\C(=O)N(CCCOc3cc(O)c4c(=O)cc(-c5ccccc5)oc4c3)c3ccccc32)cc(OC)c1O ?
Reply text: 0

Inquiry: Hey, what did the test say about Cc1[nH]c(C(=O)Nc2ccccc2OC2CCN(CCN3CCOCC3)CC2)c(Cl)c1Cl ?
Reply text: 0

Inquiry: Hey, what did the test say about C=C(C)[C@@H]1CC[C@]2(C(=O)Nc3ccccn3)CC[C@]3(C)[C@H](CC[C@@H]4[C@@]5(C)CCCNC(C)(C)[C@@H]5CC[C@]43C)[C@@H]12 ?
Reply text: 0

Inquiry: Hey, what did the test say about O=c1oc2c(cc1-c1ccccc1)c[n+]([O-])c1ccccc21 ?
Reply text: 0

Inquiry: Hey, what did the test say about Cc1nn(-c2ccc([N+](=O)[O-])cc2)c2ncnc(N/N=C/c3ccccc3O)c12 ?
Reply text: 1

Inquiry: Hey, what did the test say about CCNC(=O)N1CCc2c(Br)c3c(c(OC)c2C1Cc1ccc(OC)cc1)OCO3 (centres undefined) ?
Reply text: 0

Inquiry: Hey, what did the test say about O=[N+]([O-])c1ccccc1Sc1ccccc1[N+](=O)[O-] ?
Reply text: 0

Inquiry: Hey, what did the test say about COc1cc2ncnc(Nc3ccc(F)c(Cl)c3)c2cc1OCC(=O)N1CCOCC1 ?
Reply text: 0

Inquiry: Hey, what did the test say about OC1CSSC1Cn1cnc2c(Nc3ccc(OCc4cccc(F)c4)c(Cl)c3)ncnc21 (centres undefined) ?
Reply text: 0

Inquiry: Hey, what did the test say about ClC(Cl)c1nc(-c2ccccc2)n2nc(-c3ccccc3)cc2n1 ?
Reply text: 1

Inquiry: Hey, what did the test say about Cc1cc(C(=O)CCCC(=O)c2cc(C)c(O)c(C)c2)cc(C)c1O ?
Reply text: 0

Inquiry: Hey, what did the test say about COc1ccc(-c2cc(-c3cn(-c4cccc(Cl)c4)nc3-c3ccc(OC)cc3)on2)cc1 ?
Reply text: 0

Inquiry: Hey, what did the test say about CCOC(=O)/C=C1\S/C(=N\Nc2cc(=O)[nH]c3ccc(Br)cc23)N(c2ccccc2)C1=O ?
Reply text: 0

Inquiry: Hey, what did the test say about COc1ccc(C/C(C)=C(\c2ccc(O)cc2)c2ccc(OCCN3CCCCC3)cc2)cc1 ?
Reply text: 0

Inquiry: Hey, what did the test say about Cn1cc(-c2csc(-c3cn(CCCN4CCOCC4)c4ccc(F)cc34)n2)c2cccnc21 ?
Reply text: 0

Inquiry: Hey, what did the test say about CS(=O)/C(C#N)=C\C=C\c1cccc(Cl)c1 (centres undefined) ?
Reply text: 0

Inquiry: Hey, what did the test say about COc1ccc(C/C(C)=C(\c2ccc(Cl)cc2)c2ccc(OCCN3CCCC3)cc2)cc1 ?
Reply text: 0

* * *

Test system: SNB-19 CNS
experiment.notes: NCI-60 one-dose screen, 48 h (100 = growth as untreated, 0 = no growth, -100 = all killed)
assay.context: 10 µM unless noted
This is part of a sample that, as a whole, favours compounds with a hit. Of some 83,000 tested, about 20% had one in any assay. Activity calls are given as the source filed them. How the source made its calls: active means growth percent below 10; inactive means the rest.
Answer each item with its documented growth.

Inquiry: Requested read-out: growth. Entry: CCSc1ccnc(N)n1
Reply text: 103% (inactive)

Inquiry: Requested read-out: growth. Entry: Cc1ccc(S(=O)(=O)c2nc(-c3ccccc3)oc2SCC(N)=O)cc1
Reply text: 99.5% (inactive)

Inquiry: Requested read-out: growth. Entry: Fc1cccc(CNc2c3ccccc3nc3ccccc23)c1
Reply text: 35.9% (inactive)

Inquiry: Requested read-out: growth. Entry: COc1ccc(Oc2ccc(/C=C/C(=O)c3cc4ccccc4oc3=O)cc2)cc1
Reply text: 91.7% (inactive)

Inquiry: Requested read-out: growth. Entry: CCOC(=O)c1nnn(Cc2cc(=O)oc3ccc(O)cc23)c1C
Reply text: 96% (inactive)

Inquiry: Requested read-out: growth. Entry: CCCOC(=O)Nc1nc2ccc(SCC)cc2s1
Reply text: 84.5% (inactive)

Inquiry: Requested read-out: growth. Entry: CCn1cc(C(=O)O)c(=O)c2cc(F)c(N3CCN(CC(=O)Nc4ccccc4)C(C)C3)c(F)c21 (centres undefined)
Reply text: 99.1% (inactive)

Inquiry: Requested read-out: growth. Entry: O=C(/C=C/C12c3ccccc3C(c3ccccc31)C1C(=O)NC(=O)C12)c1ccc(Cl)cc1Cl (centres undefined)
Reply text: 27% (inactive)

Inquiry: Requested read-out: growth. Entry: COC1C(O)CC(OC2CC(OC3CC(O[C@@H]4C(=O)c5c(cc6cc(OC7CC(OC8CC(O)C(O)C(C)O8)C(O)C(C)O7)c(C)c(O)c6c5O)CC4[C@H](OC)[C@@H](O)C(C)=O)OC(C)C3O)OC(C)C2O)OC1C (some centres undefined)
Reply text: 16.4% (inactive)

* * *

System: IGROV1 ovarian
experiment.notes: NCI-60 one-dose screen, 48 h (100 = growth as untreated, 0 = no growth, -100 = all killed)
assay.context: 10 µM unless noted
This is part of a sample that, as a whole, favours compounds with a hit. Of some 83,000 tested, about 20% had one in any assay.
attribute.measured: growth (%)
Form entry: value (%) — number only.

Inquiry: Requested read-out: growth. Entry: CN1CC(c2ccc(Br)cc2)C(C(=O)c2ccc(Br)cc2)C12C(=O)Nc1ccccc12 (stereo not given)
Reply text: 62.6

Inquiry: Requested read-out: growth. Entry: CCOC(=O)C1=C(c2ccccc2)N=C2N(c3ccccc3)N=C(C(C)=O)N2C1c1ccc(F)cc1 (stereo not given)
Reply text: 96.3

Inquiry: Requested read-out: growth. Entry: O=C(Nc1ccc(Nc2ccncc2)cc1)c1ccc(Nc2ccnc3ccc([N+](=O)[O-])cc23)cc1
Reply text: 97

Inquiry: Requested read-out: growth. Entry: Cc1cc2oc(/C=C/c3ccccc3)cc(=O)c2c(C)c1Cl
Reply text: 109

Inquiry: Requested read-out: growth. Entry: CNC(=O)c1cc(Oc2ccc3c(c2)sc2nc(-c4cc(C(F)(F)F)cc(C(F)(F)F)c4)cn23)ccn1
Reply text: 74.1

Inquiry: Requested read-out: growth. Entry: Cc1cc(=O)n(C(=S)Nc2ccc(Cl)cc2)c2cc(O)ccc12
Reply text: 102

Inquiry: Requested read-out: growth. Entry: O=C(Nc1ncc(Cc2ccccc2)s1)c1sc2ccccc2c1Cl
Reply text: 33.1

Inquiry: Requested read-out: growth. Entry: O=C(Nc1ccccc1O)c1ccc(CNc2ccnc(C(F)(F)F)c2)cc1
Reply text: 59.9

Inquiry: Requested read-out: growth. Entry: CN(C)Cc1cc(C(C)(C)C)cc(Br)c1O
Reply text: 108

Inquiry: Requested read-out: growth. Entry: CN(C)CCCNC(=O)c1cncnc1Nc1ccc2c(ccn2Cc2cccc(F)c2)c1
Reply text: 90.1
